Data origin: patent US8785478B2

- target: 1b (BK) NS5BΔ21 (Hepatitis C virus genotype 1b, UniProt P26663)
- Construct: 100 nM, 1b (BK) NS5BΔ21
- Sequence (P26663 2420-2989, stated change not applied): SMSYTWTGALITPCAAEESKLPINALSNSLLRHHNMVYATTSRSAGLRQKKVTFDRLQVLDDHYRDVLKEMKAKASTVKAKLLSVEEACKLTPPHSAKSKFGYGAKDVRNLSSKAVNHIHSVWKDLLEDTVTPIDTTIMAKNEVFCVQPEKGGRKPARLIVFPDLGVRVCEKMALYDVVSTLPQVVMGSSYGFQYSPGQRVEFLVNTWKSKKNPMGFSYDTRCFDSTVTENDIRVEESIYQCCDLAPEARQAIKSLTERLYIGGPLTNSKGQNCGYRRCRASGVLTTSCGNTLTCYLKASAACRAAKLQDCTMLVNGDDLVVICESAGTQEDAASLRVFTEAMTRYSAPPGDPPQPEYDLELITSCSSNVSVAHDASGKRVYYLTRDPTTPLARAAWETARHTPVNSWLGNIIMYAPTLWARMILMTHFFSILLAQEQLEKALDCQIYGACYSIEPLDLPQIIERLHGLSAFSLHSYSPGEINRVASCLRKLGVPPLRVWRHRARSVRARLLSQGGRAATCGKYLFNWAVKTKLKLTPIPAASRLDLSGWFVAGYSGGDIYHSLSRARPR
- assayOverview: HCV Polymerase Inhibition Assay
- Assay type: biochemical
- testParameters: 1b polymerase IC50 (μM) range, genotype 1b NS5B, 33P-GTP incorporation
// reported IC50 for each item listed

CNC(=O)c1c2cc(C3CC3)c(N(CCC3CN(C(=O)OC(C)(C)C)C3)S(C)(=O)=O)cc2nn1-c1ccc(C)cn1 | 1 to 10 µM
CNC(=O)c1c2cc(C3CC3)c(N(CCF)S(C)(=O)=O)cc2nn1-c1ccc(C)cn1 | 0.5 to 0.99 µM
CNC(=O)c1c2cc(C3CC3)c(N(C)S(C)(=O)=O)cc2nn1-c1ccc(Cl)cn1 | < 0.1 µM
CNC(=O)c1c2cc(C3CC3)c(N(CCC3CN(C(C)=O)C3)S(C)(=O)=O)cc2nn1-c1ccc(C)cn1 | 0.5 to 0.99 µM
CNC(=O)c1c2cc(C3CC3)c(N(C)S(C)(=O)=O)cc2nn1-c1ccc(C)cn1 | 0.1 to 0.49 µM

Request: Tell me its IC50 given CNC(=O)c1c2cc(C3CC3)c(N(CCC3COC3C)S(C)(=O)=O)cc2nn1-c1ccc(C)cn1 (stereo not shown) as the entry.
Result: 0.5 to 0.99 µM

Request: Tell me its IC50 given CNC(=O)c1c2cc(C3CC3)c(N(CCC3COC3)S(C)(=O)=O)cc2nn1-c1ccc(C)cn1 as the entry.
Result: 0.1 to 0.49 µM
